Entry source: patent EP0640095B1

test: Solubility of vancomycin as a function of pH (base crystallization); type: physicochemical; details: pH 9; pH of 9.0 to 9.5
ENDPOINT_NAME: solubility

Problem: Suppose we examine the molecule CN[C@H](CC(C)C)C(=O)N[C@H]1C(=O)N[C@@H](CC(N)=O)C(=O)N[C@H]2C(=O)N[C@H]3C(=O)N[C@H](C(=O)N[C@H](C(=O)O)c4cc(O)cc(O)c4-c4cc3ccc4O)[C@H](O)c3ccc(c(Cl)c3)Oc3cc2cc(c3O[C@@H]2O[C@H](CO)[C@@H](O)[C@H](O)[C@H]2O[C@H]2C[C@](C)(N)[C@H](O)[C@H](C)O2)Oc2ccc(cc2Cl)[C@H]1O ; what solubility value has been reported?
Solution: 5 to 20 mg/mL
